Every entry's value here was drawn from ChEMBL document CHEMBL1201862.

# Tested on: HOP-62
# assayExplanation: NCI tumour cell line growth inhibition, 48 h
Activity calls are given as the source filed them. Rule as the data show it: active = GI50 up to about 1.1 µM and inactive = higher.
Field: GI50. Provide a value for each of the molecules that follow.

*Q* Give the measured GI50 of `NCCNCCNc1ccc(NCCNCCN)c2c1C(=O)c1c(O)ccc(O)c1C2=O` .
*A* > 100 µM (inactive)

*Q* For `Clc1ccc(-c2c(C3=NCCCN3)nnn2-c2ccc(Cl)cc2)cc1` then?
*A* 55.5 µM (inactive)

*Q* Lookup `CC(C)(CO)CNc1cc(=O)[nH]c(N)n1`
*A* > 100 µM (inactive)

*Q* Now the molecule O=C1CSC(c2cccc([N+](=O)[O-])c2)N1c1ccc(-n2c(-c3ccccc3)nc3ccccc3c2=O)cc1 (stereo not given)
*A* > 100 µM (inactive)

*Q* Continue with `CC12CCC(CC1)C(C)(C)O2`
*A* 12.6 µM (inactive)

* * *

# System: OVCAR-8
# assayExplanation: NCI tumour cell line growth inhibition, 48 h
Active and inactive are the calls of the source. No stated cut-off is given here; in the data, active = GI50 up to about 1.1 µM and inactive = higher.
Provide the recorded GI50 for the entries that follow.

*Q* Test system OVCAR-8; read-out GI50; what value for `O=C1Nc2nnc(S)n2NC12c1ccccc1-c1ccccc12` ?
*A* > 100 µM (inactive)

*Q* Similarly, `Cc1ccc(S(=O)(=O)NCCN(CCNS(=O)(=O)c2ccc(C)cc2)S(=O)(=O)c2ccc(C)cc2)cc1` ?
*A* 94.6 µM (inactive)

*Q* Next: `CC1(C)N=C(N)N=C(N)N1c1cccc(OCc2cccc(N)c2)c1`
*A* > 83 µM (inactive)

*Q* Also check Cc1ccc2c(c1)CC1(Cc3cccc(C)c3C1=O)C2=O (stereo not given)
*A* > 100 µM (inactive)

*Q* Same for COC(=O)C12OC3CO[Si](C(C)C)(C(C)C)O[Si](C(C)C)(C(C)C)OC3C1Oc1nc(=O)ccn12 (stereo not given)
*A* 15.5 µM (inactive)

*Q* Next up: COc1cc2c(cc1OC)C(C(c1ccccc1)c1ccccc1)N(C)CC2 (stereo not given)
*A* > 100 µM (inactive)

*Q* For `CC(C)=CCC[C@@H](C)C1=CC(=O)C(C)=C(O)C1=O` then?
*A* 2.15 µM (inactive)

*Q* Please answer likewise for `COC(=O)c1c2c(cc3c1CC1(Cc4cc5c(cc4C1)CCCC5)C3)CCCC2`
*A* > 100 µM (inactive)

*Q* Same thing, different compound: `O=C(O)c1ccc(C2=Cc3cc(Cl)ccc3OC2)cc1`
*A* > 100 µM (inactive)

*Q* Again, but for CC1=C2[C@H](c3ccccc3)C3C=CC2(c2ccccc23)N(C(=O)C(c2ccccc2)c2ccccc2)C1=O (stereo not given in full)
*A* > 100 µM (inactive)

* * *

Consider the following compounds; for each one, report its GI50.
# Tested on: HL-60
# assayExplanation: NCI tumour cell line growth inhibition, 48 h
The source made the active and inactive calls. Rule as the data show it: active = GI50 up to about 1.1 µM and inactive = higher.

*Q* Given the compound `O=C1C(Cl)=CC2(C=C1Cl)CCNC1=C2C(=O)c2nc[nH]c2C1=O` , what is its reported GI50?
*A* 24.4 µM (inactive)

*Q* Entry `COc1ccc(C=O)cc1OS(=O)(=O)C(F)(F)C(F)(F)C(F)(F)C(F)(F)F` please
*A* 8.75 µM (inactive)

*Q* Queued: CCOC(=O)C(NC(=O)CC)(C(F)(F)F)P(=O)(OCC)OCC (stereo unspecified)
*A* > 100 µM (inactive)

*Q* Queued: `CC(C)(c1ccc(OC#N)cc1)c1ccc(OC#N)cc1`
*A* > 55 µM (inactive)

*Q* Queued: `Cc1n[nH]c(=O)n1C1CCCC1`
*A* > 100 µM (inactive)

*Q* Input Cc1ccc2c(c1C)CC1(Cc3c(C)ccc(C)c3C1=O)C2=O (stereo unspecified)
*A* > 100 µM (inactive)
